# System: PPARg DBDmut:RXRa IVT, anti-PPARg (DBD mutation: PPARg1 K132A/R137A, NR concentration 270 nM, RXRa partner concentration 90 nM)
# TEST SUMMARY: PBM binding z-score (relative to random genomic background probes); higher = stronger binding; sequences stand for … in GC…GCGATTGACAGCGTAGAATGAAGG
Below, each entry is listed alongside its reported PBM binding z-score.
Lab note: record just the number, no unit beside it.

Answered cases to consult:
BIOPOLYMER SEQUENCE: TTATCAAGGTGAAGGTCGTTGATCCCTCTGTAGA
MEASUREMENT LABEL: PBM binding z-score
RESULT VALUE: 1.51

BIOPOLYMER SEQUENCE: CGGACTAGGTCATCCAGGACAGTGAATACATTGA
MEASUREMENT LABEL: PBM binding z-score
RESULT VALUE: 1.52

BIOPOLYMER SEQUENCE: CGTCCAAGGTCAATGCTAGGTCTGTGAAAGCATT
MEASUREMENT LABEL: PBM binding z-score
RESULT VALUE: 0.249

The recorded PBM binding z-score for entry "CTCGAAAGGTCTGTTGAGGTGAGTATACGGATAA" equals 0.678

The recorded PBM binding z-score for entry "ATTCGGAGGACAAAGGTCAGAGCTACGCCAGTGA" equals 0.302

The recorded PBM binding z-score for entry "GCTCGGAGGACAAGGTCAGAGCTTTGTCCGTAGA" equals -1.56

The recorded PBM binding z-score for entry "ATCTCTAGGTAAGACCCAGTTCAGTGAAGAACGC" equals 0.676

The recorded PBM binding z-score for entry "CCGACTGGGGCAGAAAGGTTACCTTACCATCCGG" equals -1.35

The recorded PBM binding z-score for entry "CCTTACGAGTCAAGGTTATAGCACGGGTGGTACG" equals -0.0742

---

# Test system: LXRb:RXRa (NR concentration 270 nM, RXRa partner concentration 90 nM)
# TEST SUMMARY: PBM binding z-score (relative to random genomic background probes); higher = stronger binding; sequences stand for … in GC…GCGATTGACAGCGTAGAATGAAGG
Response key: true (1) means PBM binding z-score >= 2; false (0) means PBM binding z-score < 2.

Example entries begin here.
BIOPOLYMER SEQUENCE: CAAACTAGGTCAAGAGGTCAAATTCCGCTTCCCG
LABEL: true (1)

BIOPOLYMER SEQUENCE: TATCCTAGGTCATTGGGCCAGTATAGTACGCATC
LABEL: true (1)

BIOPOLYMER SEQUENCE: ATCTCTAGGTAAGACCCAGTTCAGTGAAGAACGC
LABEL: false (0)

BIOPOLYMER SEQUENCE: TCGAGTAGGTTACCAATGGGGCATTCTGCTTTCT
LABEL: false (0)

BIOPOLYMER SEQUENCE: CGTCCCAGGTCAGAGAGGTCAGTGAATGCCGAGT
LABEL: true (1)

input: Given "TCTCGGAGCACACGAAGGTCAGAGCTTTCCAGAG" , state whether its PBM binding z-score is at least 2.
output: false (0)

input: Given "CAAACTAGGTCACCGGAAGGTCAAATTCCGCATG" , state whether its PBM binding z-score is at least 2.
output: true (1)

input: Given "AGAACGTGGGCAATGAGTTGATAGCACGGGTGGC" , state whether its PBM binding z-score is at least 2.
output: false (0)

input: Given "CCAGACAGGTGAAAGGTAAGTCAGTCTGGTACGC" , state whether its PBM binding z-score is at least 2.
output: false (0)

input: Given "GCTAGCATGCCATTTGGGTCACTCAATGACGGGC" , state whether its PBM binding z-score is at least 2.
output: false (0)

input: Given "CAAACTAGGTCGCCGGAAGGTCAAAGTCCGCATG" , state whether its PBM binding z-score is at least 2.
output: true (1)
